Ref: PubChem BioAssay (NCI)

Kindly supply the reported TGI values for the records listed here.
# Tested on: UACC-62 melanoma
# protocol-text: NCI tumour cell line growth inhibition, 48 h
Answers are plain numbers, in µM.

Solved entries (count: 2):
COc1cc(-c2nc(-c3ccccc3)c(-c3ccccc3)[nH]2)cc(OC)c1O : 29.6
COC(=O)[C@@H]1c2c(oc3cc(CO)cc(O)c3c2=O)C=C[C@H]1O : 25

Name the reported TGI value associated with the compound `Nc1nc(SCc2ccccc2CCl)c2[nH]cnc2n1` 30.1

###

Kindly state TGI for each of the entries shown.
# System: HT29 colon
# protocol-text: NCI tumour cell line growth inhibition, 48 h

// input: 4 compounds below; output: TGI for each
1. COc1cc(N=Nc2cc(Cc3ccc(N(C)C)cc3)c(N)cc2N(C)C)c2ncccc2c1
2. COc1cccc(C2CC(=O)Nc3c2c(C)nn3-c2nc3ccccc3[nH]2)c1OC (configuration not stated)
3. CC(=O)ON(OCc1ccc2ccccc2c1)C(C)=O
4. NC(=NCCCCCCN=C(N)/N=C(\N)Nc1ccc(Cl)cc1)/N=C(\N)Nc1ccc(Cl)cc1

1: 2.4 µM; 2: > 47.6 µM; 3: > 100 µM; 4: 5.18 µM
